molecular target: recombinant purified human IL-12 p70 (human) (UniProt P29459); assay: SPR (Biacore) per Example 1.1.B; antigen not restated, taken as human IL-12 p70
Sequence (chain, as listed by the source, form in doubt, chain 1 of 2): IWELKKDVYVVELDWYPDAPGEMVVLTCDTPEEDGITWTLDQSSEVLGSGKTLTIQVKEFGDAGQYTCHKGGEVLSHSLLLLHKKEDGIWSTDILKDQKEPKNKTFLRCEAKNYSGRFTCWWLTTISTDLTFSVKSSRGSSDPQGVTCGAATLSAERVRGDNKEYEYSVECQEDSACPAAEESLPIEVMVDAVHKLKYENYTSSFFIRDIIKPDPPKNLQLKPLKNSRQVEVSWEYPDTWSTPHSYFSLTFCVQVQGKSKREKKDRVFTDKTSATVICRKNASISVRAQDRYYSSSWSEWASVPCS
Sequence (P29459 23-219, form in doubt, chain 2 of 2): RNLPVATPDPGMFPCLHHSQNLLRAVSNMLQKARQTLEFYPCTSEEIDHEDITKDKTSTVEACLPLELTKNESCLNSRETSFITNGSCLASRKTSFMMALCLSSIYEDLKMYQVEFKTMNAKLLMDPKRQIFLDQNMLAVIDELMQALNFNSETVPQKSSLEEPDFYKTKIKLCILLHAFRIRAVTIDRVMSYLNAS
READOUT_TYPE: kon (M⁻¹ s⁻¹)
// note: answer is a bare numeric in M⁻¹ s⁻¹

Below, 3 binders whose answers are already recorded.
BINDER	UOM	OBSERVED_VALUE
1A6.10 (antibody, V domains shown) VH: EVTLRESGPGLVKPTQTLTLTCTLYGFSLSTSGMGVSWIRQPPGKGLEWLAHIWWDGDNYYNPSLKSQLTISKDTSKNQVVLKLTSVDPVDTATYYCARRTRVNYAMDYWGQGTLVTVSS VL: DIQMTQSPSSLSASVGDRVTITCKASQSVSNDVAWYQQKPGKAPKLLIYYASNRYTGVPDRFSGSGYGTDFTFTISSLQPEDIATYYCQQDYNSPWTFGGGTKVEIKR	M⁻¹ s⁻¹	320000
1A6.12 (antibody, IgG1, V domains shown) VH: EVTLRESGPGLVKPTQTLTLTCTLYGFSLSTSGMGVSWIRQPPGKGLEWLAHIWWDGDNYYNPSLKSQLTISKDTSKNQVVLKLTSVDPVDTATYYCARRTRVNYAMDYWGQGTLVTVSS VL: DIQMTQSPSSLSASVGDRVTITCKASQSVSNDVAWFQQKPGKAPKLLIYYASNRYTGVPDRFSGSGYGTDFTFTISSLQPEDIATYYCQQDYNSPWTFGGGTKVEIKR	M⁻¹ s⁻¹	740000
8E1.6 (antibody, V domains shown) VH: EVQLVESGGGLVQPGGSLRLSCAASGFTFSDYGMVWVRQAPGKGLEWVASISSGSSNIYYADTVKGRFTISRDDAKNTLYLQMNSLRAEDTAVYYCARNPYWGQGTLVTVSS VL: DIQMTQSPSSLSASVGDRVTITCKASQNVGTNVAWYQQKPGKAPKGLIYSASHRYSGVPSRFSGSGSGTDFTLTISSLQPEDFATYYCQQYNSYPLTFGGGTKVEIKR	M⁻¹ s⁻¹	1.7e+06

Alright, here's another binder for you.
Input line: Which kon is reported for this binder? 8E1.4 (antibody, IgG1, V domains shown) VH: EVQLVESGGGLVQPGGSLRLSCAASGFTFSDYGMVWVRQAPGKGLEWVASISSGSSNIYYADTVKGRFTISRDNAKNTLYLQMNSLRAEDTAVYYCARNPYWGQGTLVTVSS VL: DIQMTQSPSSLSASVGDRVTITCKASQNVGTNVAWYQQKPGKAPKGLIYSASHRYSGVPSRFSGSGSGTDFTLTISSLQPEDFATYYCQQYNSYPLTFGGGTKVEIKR
Output line: 800000
